Target: GST-ANAC092(1-176) (Arabidopsis thaliana, UniProt Q9FKA0 1-176)
Sequence: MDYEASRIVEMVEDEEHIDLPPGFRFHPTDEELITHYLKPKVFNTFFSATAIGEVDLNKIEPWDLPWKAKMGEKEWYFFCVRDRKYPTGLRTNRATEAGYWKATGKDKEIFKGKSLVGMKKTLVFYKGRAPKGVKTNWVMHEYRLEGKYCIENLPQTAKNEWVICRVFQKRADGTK
Experiment: universal protein binding microarray (PBM); high values mean tight binding
Details: protein: recombinant; tags: GST; chain copies: 2; dsDNA, one strand shown
So basically: binding signal at 0.3 E-score or higher? That is Satisfied. Lower than 0.3 E-score? That is Not satisfied.

Residue string	Group
GTTGCTTA	Satisfied
ATAACGTG	Satisfied
GCACGCAA	Satisfied
CTGGCGTA	Satisfied
CTGTTGAC	Not satisfied

### Prompt Can AAGGGTAA be said to have binding signal at or above 0.3 E-score?
### Response Not satisfied

### Prompt Answer whether binding signal of CAAGTCAA is greater than or equal to 0.3 E-score.
### Response Not satisfied

### Prompt Reported binding signal at or above 0.3 E-score? ACGCAATA
### Response Satisfied

### Prompt Assess whether reported binding signal for ATGCGTAA sits at 0.3 E-score or higher.
### Response Satisfied

### Prompt In plain terms: is recorded binding signal at least 0.3 E-score for TTAAGGAA ?
### Response Not satisfied

### Prompt Dear colleague, could you confirm whether ACTTGACC has binding signal at or above 0.3 E-score?
### Response Not satisfied

### Prompt Could you tell me if the measured binding signal of ACGCATCC reaches 0.3 E-score or more?
### Response Satisfied

### Prompt Entry ACACGCTA : is its binding signal no less than 0.3 E-score?
### Response Satisfied

### Prompt Confirm if binding signal reported for the sequence AGGGAAAT is 0.3 E-score or above.
### Response Not satisfied

### Prompt Assess whether reported binding signal for GCACGCTA sits at 0.3 E-score or higher.
### Response Satisfied

---

Reported binding signal values are given for each entry in this list.
Biological target: GST-ANAC092(1-176) (Arabidopsis thaliana, UniProt Q9FKA0 1-176)
Sequence: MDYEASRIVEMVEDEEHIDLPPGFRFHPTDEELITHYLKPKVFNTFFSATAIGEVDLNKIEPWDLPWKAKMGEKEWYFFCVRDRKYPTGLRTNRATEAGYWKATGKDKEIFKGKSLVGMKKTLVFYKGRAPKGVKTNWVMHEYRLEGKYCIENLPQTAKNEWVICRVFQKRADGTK
Assay: universal protein binding microarray (PBM); high values mean tight binding
Details: protein: recombinant; tags: GST; chain copies: 2; dsDNA, one strand shown
Express your answer in E-score, writing the number without its unit.

# example entries with known answers
Residue string	Experimental target	binding signal, E-score
GGACGCAA	GST-ANAC092(1-176) (Arabidopsis thaliana, UniProt Q9FKA0 1-176)	0.411
ACGTTACG	GST-ANAC092(1-176) (Arabidopsis thaliana, UniProt Q9FKA0 1-176)	0.389
CACTCAAC	GST-ANAC092(1-176) (Arabidopsis thaliana, UniProt Q9FKA0 1-176)	0.4
AATGCCGT	GST-ANAC092(1-176) (Arabidopsis thaliana, UniProt Q9FKA0 1-176)	0.335
CACGCGAA	GST-ANAC092(1-176) (Arabidopsis thaliana, UniProt Q9FKA0 1-176)	0.343

Sample AACACGCT ; binding signal observed: 0.416

binding signal measured on GACGTCAA = 0.16

Form: sequence = CTACGTCA ; binding signal = 0.0986

get_value(item= GTTTCGTA , readout=binding signal) returns 0.375

Query GTACGCTA yields binding signal of 0.428

Lookup result for TCACGGCA ; measured binding signal: 0.398

For reference, reported binding signal for ACACTCAA stands at 0.425

Just so you know, measured binding signal for AGCGTAAA came out at 0.223

The recorded binding signal for GTTTCCTA is 0.118

get_value(item= AGGGTAAA , readout=binding signal) returns 0.1

---

Target: GST-NST2(1-184) (Arabidopsis thaliana, UniProt Q9M274 1-184)
Sequence: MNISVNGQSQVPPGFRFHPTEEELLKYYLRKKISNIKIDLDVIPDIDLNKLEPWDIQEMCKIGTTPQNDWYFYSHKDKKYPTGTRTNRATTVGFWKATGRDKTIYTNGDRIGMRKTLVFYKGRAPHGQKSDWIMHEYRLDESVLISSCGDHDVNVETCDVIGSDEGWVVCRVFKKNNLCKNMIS
Assay: universal protein binding microarray (PBM); high values mean tight binding
Details: protein: recombinant; tags: GST; chain copies: 2; dsDNA, one strand shown
Assay readout: binding signal (E-score)
Expressed in E-score, but write only the number.

A selection of reference data follows.
Residue string	Measurement
ATGACGTG	0.258
CACGGCAG	0.0722
AAAGGTAA	0.199
ATGCGTGC	0.221

The sequence identified as TTAAGTAA registered its binding signal at 0.258

TTACGCAA yielded binding signal of 0.437

Recorded binding signal (sequence AAGGGTAA ): 0.126

Consider ACGTAACT . Its measured binding signal is 0.251

The value of binding signal measured for the sequence TACGCAAA turned out to be 0.393

Form field binding signal, entry GCAAGCAA : 0.28

Given item ACGGCACT , the value recorded as its binding signal is 0.187

Looking up CACGTCAA , I found its binding signal recorded as 0.252

The reported value for AGGTTTCC in terms of binding signal is 0.0833

response.value for GCACGTTA (field: binding signal) = 0.234

Documented binding signal of GTCAAAAA : 0.121

Entry GCGTGTAA — recorded binding signal = 0.275

---

Molecular target: GST-ANAC092(1-285) full length (Arabidopsis thaliana, UniProt Q9FKA0 1-285)
Sequence: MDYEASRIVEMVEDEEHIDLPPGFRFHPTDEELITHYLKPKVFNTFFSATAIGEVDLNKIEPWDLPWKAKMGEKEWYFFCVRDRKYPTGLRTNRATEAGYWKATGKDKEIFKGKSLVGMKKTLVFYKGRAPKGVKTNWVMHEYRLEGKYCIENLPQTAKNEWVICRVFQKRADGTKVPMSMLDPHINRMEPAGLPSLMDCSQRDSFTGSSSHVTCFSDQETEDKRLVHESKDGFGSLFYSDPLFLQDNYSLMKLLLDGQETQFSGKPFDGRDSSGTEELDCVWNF
Test: universal protein binding microarray (PBM); high values mean tight binding
Settings: protein: recombinant; tags: GST; chain copies: 2; dsDNA, one strand shown
Recorded measurements of binding signal, one per entry
Give your result in E-score as a bare value.

Residue string	Measurement
CGACACGC	0.403
CACACGTC	0.405
CACGTCAG	0.407

Next:
Consider GTTGCTTA . Its measured binding signal is 0.393

---

Target: GST-SND1(1-203) (Arabidopsis thaliana, UniProt Q9LPI7 1-203)
Sequence: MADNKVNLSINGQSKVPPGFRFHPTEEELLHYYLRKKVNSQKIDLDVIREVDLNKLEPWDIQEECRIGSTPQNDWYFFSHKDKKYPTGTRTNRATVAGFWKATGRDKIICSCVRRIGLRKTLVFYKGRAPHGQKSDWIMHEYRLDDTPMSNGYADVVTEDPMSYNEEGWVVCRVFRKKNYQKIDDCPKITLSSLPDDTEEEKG
Assay: universal protein binding microarray (PBM); high values mean tight binding
Conditions: protein: recombinant; tags: GST; chain copies: 2; dsDNA, one strand shown
Rule: y for binding signal not less than 0.4 E-score, n for anything less.

Below, 6 sequences whose answers are already recorded.
Residue string	Group
CTAAGTTA	y
GTTGCTTA	y
CTACGCGA	y
AACGTAAG	y
ACGTGTAC	n
GCAAGAAA	n

### Prompt Given CTAGCGTA , state whether its binding signal is at least 0.4 E-score.
### Response y

### Prompt Could you please find out whether ATGTCGTG has binding signal that meets 0.4 E-score or exceeds it?
### Response n

### Prompt Reported binding signal at or above 0.4 E-score? GAAGGAAA
### Response n

---

Biological target: GST-ATAF1 NAC domain (Arabidopsis thaliana, UniProt Q39013 7-158)
Sequence: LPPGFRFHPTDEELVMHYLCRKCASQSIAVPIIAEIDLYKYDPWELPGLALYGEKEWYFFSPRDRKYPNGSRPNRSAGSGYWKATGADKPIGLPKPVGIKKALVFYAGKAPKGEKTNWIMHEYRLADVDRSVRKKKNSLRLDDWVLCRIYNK
Assay: universal protein binding microarray (PBM); transcription factors of Arabidopsis thaliana; high values mean tight binding
Conditions: protein: recombinant; tags: GST; chain copies: 2; dsDNA, one strand shown
Quick list: binding signal per entry.
Give your result in E-score as a bare value.

Examples with their reported binding signal follow.
Residue string	binding signal, E-score
CTTGACTA	0.142
GAATTGAC	0.092
CCACGCAA	0.235

The sequence listed as CACACGCA shows binding signal equal to 0.248

binding signal measured on AATACTTA = 0.254

Per the records, this sequence ( TGCACGCA ) has binding signal equal to 0.128

Reported binding signal ( CTCGTCAA ) = 0.0515
